Target: Ba/F3-FL-EGFR (L858R/T790M) (Homo sapiens, UniProt P00533, T790M/L858R, cells depend on it)
Sequence (P00533 whole entry T790M/L858R): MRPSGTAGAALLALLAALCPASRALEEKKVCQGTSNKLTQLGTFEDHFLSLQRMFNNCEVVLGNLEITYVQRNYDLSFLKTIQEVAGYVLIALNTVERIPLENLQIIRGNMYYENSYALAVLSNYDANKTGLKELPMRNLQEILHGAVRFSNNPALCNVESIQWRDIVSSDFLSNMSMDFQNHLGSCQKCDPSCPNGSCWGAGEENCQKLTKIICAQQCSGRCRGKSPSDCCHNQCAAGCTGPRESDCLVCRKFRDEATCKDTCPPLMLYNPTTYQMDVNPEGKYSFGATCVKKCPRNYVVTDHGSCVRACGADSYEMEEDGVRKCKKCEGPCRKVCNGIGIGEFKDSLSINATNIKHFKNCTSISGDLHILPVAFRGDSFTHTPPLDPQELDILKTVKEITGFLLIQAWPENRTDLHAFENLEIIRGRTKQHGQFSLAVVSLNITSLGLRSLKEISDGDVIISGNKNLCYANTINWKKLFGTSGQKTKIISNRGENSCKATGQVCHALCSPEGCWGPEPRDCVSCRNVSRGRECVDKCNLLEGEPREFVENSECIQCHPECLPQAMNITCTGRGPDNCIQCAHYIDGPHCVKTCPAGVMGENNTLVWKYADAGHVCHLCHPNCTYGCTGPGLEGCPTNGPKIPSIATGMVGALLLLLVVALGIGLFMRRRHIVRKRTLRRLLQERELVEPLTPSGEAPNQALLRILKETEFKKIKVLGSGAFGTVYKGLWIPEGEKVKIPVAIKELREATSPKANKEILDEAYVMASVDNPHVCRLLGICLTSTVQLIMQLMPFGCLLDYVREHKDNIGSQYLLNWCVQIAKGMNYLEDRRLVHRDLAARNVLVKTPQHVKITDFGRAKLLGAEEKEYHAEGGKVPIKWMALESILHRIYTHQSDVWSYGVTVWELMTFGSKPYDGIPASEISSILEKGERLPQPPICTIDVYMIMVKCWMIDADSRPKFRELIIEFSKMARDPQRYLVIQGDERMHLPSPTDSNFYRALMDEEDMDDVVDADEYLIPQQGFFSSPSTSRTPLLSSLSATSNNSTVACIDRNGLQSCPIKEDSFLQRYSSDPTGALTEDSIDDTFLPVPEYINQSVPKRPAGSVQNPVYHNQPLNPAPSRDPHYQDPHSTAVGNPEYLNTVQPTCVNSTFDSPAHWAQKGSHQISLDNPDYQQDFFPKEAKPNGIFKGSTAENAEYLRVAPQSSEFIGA
Assay details: Cell proliferation inhibition, CellTiter-Glo
Format: cell-based
Setup conditions: 72 hours, read-out: Cell half-maximal inhibition concentration IC50 Ba/F3-FL-EGFR (L858R/T790M)
Protocol: AdenosineTri-Phosphate (ATP) is an energy carrier shared by various life activities in nature, and is the smallest unit of energy storage and transfer. The CellTiter-Glo™ living cell assay kit uses luciferase as a detector, and luciferase requires the participation of ATP in the process of luminescence. CellTiter-Glo™ reagent is added to a cell culture medium, and the luminescence value is measured. […] Therefore, cell proliferation can be detected by detecting ATP content with the CellTiter-Glo kit. […]
Quantity: GI50 (nM)
Response body: numeric value in nM, unit text excluded.

compound="Cc1cc2cc(n1)-c1cnn(C)c1OCCC[C@@H](C)CN1/C(=N/C2=O)Nc2ccc(N=S3(=O)CCCC3)cc21 [WX-010 (trifluoroacetate)]" quantity=GI50 observed_measurement=10.5

[Q] GI50 lookup needed for Cc1cc2cc(n1)-c1cnn(C)c1OC[C@H]1CC[C@H](C1)CN1/C(=N/C2=O)Nc2ccc(N=S(C)(C)=O)cc21 (single isomer, unassigned) [WX-027A] , thanks.
[A] 14.3

[Q] Input Cc1cc2cc(n1)-c1cnn(C)c1OCCC[C@@H](C)CN1/C(=N/C2=O)Nc2ccc(N=S(C)(C)=O)c(Cl)c21
[A] 16.8

[Q] Now the same for Cc1cc2cc(n1)-c1cnn(C)c1OCCC[C@@H](C)CN1/C(=N/C2=O)Nc2ccc(N=S(C)(C)=O)cc21
[A] 12.9
